Every entry's value here was drawn from paper PMC3504124.

Molecular target: CARM1 (Homo sapiens, UniProt Q86X55)
Sequence (Q86X55 19-608): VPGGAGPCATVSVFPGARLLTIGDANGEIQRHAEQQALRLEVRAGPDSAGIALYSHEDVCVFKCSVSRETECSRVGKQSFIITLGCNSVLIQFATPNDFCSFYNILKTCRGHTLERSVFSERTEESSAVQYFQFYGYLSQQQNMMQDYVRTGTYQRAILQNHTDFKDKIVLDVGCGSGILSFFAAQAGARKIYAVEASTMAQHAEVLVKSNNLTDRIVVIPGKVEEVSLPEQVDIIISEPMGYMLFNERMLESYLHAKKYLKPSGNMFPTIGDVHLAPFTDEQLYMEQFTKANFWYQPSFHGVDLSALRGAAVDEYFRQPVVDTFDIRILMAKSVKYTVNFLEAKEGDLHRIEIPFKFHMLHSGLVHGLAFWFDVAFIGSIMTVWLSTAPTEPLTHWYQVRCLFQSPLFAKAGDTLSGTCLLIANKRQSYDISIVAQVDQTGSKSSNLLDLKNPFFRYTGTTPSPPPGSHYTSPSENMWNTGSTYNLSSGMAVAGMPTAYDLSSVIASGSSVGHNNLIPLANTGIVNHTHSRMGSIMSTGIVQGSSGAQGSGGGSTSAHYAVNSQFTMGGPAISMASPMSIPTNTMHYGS
quantity: IC50 (nM)

| compound | unit.descriptor | measured.number |
| --- | --- | --- |
| CCCNC(CCC(N)C(=O)O)C[C@H]1O[C@@H](n2cnc3c(N)ncnc32)[C@H](O)[C@@H]1O (stereo partly shown) | nM | 2960 |

###

Target: PRMT1 (Homo sapiens, UniProt Q99873)
Sequence (Q99873 10-352 isoform Q99873-3): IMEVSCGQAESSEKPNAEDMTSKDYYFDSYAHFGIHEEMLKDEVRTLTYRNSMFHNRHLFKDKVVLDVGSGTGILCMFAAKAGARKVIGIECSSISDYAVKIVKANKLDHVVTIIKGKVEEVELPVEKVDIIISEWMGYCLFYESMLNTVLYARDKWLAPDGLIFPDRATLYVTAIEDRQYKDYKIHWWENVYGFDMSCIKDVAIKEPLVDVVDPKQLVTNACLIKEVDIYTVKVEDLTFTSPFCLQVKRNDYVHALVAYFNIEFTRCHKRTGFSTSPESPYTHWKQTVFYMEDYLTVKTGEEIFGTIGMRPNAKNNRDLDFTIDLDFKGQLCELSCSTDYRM
pIC50: −log10 of the molar value.
quantity: pIC50

| molecule | system.tested | measured.number |
| --- | --- | --- |
| CCCNC(CCC(N)C(=O)O)C[C@H]1O[C@@H](n2cnc3c(N)ncnc32)[C@H](O)[C@@H]1O (stereo partly shown) [3c, N-propyl sinefungin] | PRMT1 (Homo sapiens, UniProt Q99873) | 5.02 |

###

Biological target: SET8 (Homo sapiens, UniProt Q9NQR1)
Sequence (Q9NQR1 232-393 limits assumed): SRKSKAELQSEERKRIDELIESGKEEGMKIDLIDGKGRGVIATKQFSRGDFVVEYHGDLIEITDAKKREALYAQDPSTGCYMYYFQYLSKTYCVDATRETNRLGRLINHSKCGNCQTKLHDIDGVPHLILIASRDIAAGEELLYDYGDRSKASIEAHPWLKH
quantity: IC50

| molecule | result |
| --- | --- |
| CCCNC(CCC(N)C(=O)O)C[C@H]1O[C@@H](n2cnc3c(N)ncnc32)[C@H](O)[C@@H]1O (stereo partly shown) [3c, N-propyl sinefungin] | > 100 µM |
